Tested on: UMC-11
Method Description: relative viability (nuclei count vs DMSO), 5 days (fraction); higher = more cells survive
Measurement Setup: first compound 0.03162 µM
I'd appreciate it if you marked entries criterion met when relative viability is lower than 1 and criterion not met when it is not.

INSERT INTO results (molecule, assigned_class) VALUES
  ('O=c1cc(N2CCOCC2)oc2c(-c3cccc4c3sc3ccccc34)cccc12 + CC(=O)Nc1cccc(-n2c(=O)n(C3CC3)c(=O)c3c(Nc4ccc(I)cc4F)n(C)c(=O)c(C)c32)c1 [Trametinib] (partner 0.02 µM)', 'criterion met'),
  ('O=c1cc(N2CCOCC2)oc2c(-c3cccc4c3sc3ccccc34)cccc12 + CS(=O)(=O)CCNCc1ccc(-c2ccc3ncnc(Nc4ccc(OCc5cccc(F)c5)c(Cl)c4)c3c2)o1 [Lapatinib] (partner 2 µM)', 'criterion not met'),
  ('CCN(CC)CCCCNc1ncc2cc(-c3cc(OC)cc(OC)c3)c(NC(=O)NC(C)(C)C)nc2n1 + CC(C)C[C@H](NC(=O)[C@H](Cc1ccccc1)NC(=O)c1cnccn1)B(O)O [Bortezomib] (partner 0.002 µM)', 'criterion met'),
  ('O=c1cc(N2CCOCC2)oc2c(-c3cccc4c3sc3ccccc34)cccc12 + CC(C)C[C@H](NC(=O)[C@H](Cc1ccccc1)NC(=O)c1cnccn1)B(O)O [Bortezomib] (partner 0.002 µM)', 'criterion met');

====

System: HCC-15
Method Description: relative viability (nuclei count vs DMSO), 5 days (fraction); higher = more cells survive
Measurement Setup: first compound 1 µM
Listing of recorded relative viability by entry.
Reported Metric: relative viability

INSERT INTO assay_data (molecule, recorded_value) VALUES
  ('CCN(CC)CCCCNc1ncc2cc(-c3cc(OC)cc(OC)c3)c(NC(=O)NC(C)(C)C)nc2n1 + Cc1nc(Nc2ncc(C(=O)Nc3c(C)cccc3Cl)s2)cc(N2CCN(CCO)CC2)n1 [Dasatinib] (partner 0.075 µM)', 0.554),
  ('CCN(CC)CCCCNc1ncc2cc(-c3cc(OC)cc(OC)c3)c(NC(=O)NC(C)(C)C)nc2n1 + COc1cccc2cc(-c3nc([C@H]4CC[C@H](C(=O)O)CC4)n4ncnc(N)c34)[nH]c12 [OSI-027] (partner 0.5 µM)', 0.577);

====

System: COR-L23
Method Description: relative viability (nuclei count vs DMSO), 5 days (fraction); higher = more cells survive
Measurement Setup: first compound 6.325 µM
Reported Metric: relative viability

INSERT INTO measurements (compound, recorded_value) VALUES
  ('COCC1(CO)C(=O)C2CCN1CC2 (stereo not given) [PRIMA-1MET] + CC(=O)c1c(C)c2cnc(Nc3ccc(N4CCNCC4)cn3)nc2n(C2CCCC2)c1=O [Palbociclib] (partner 0.5 µM)', 0.353),
  ('COCC1(CO)C(=O)C2CCN1CC2 (stereo not given) [PRIMA-1MET] + Cc1nc(NC(=O)N2CCC[C@H]2C(N)=O)sc1-c1ccnc(C(C)(C)C(F)(F)F)c1 [Alpelisib] (partner 2 µM)', 0.726),
  ('COCC1(CO)C(=O)C2CCN1CC2 (stereo not given) [PRIMA-1MET] + COc1cccc2cc(-c3nc([C@H]4CC[C@H](C(=O)O)CC4)n4ncnc(N)c34)[nH]c12 [OSI-027] (partner 0.5 µM)', 0.744),
  ('COCC1(CO)C(=O)C2CCN1CC2 (stereo not given) [PRIMA-1MET] + Cc1cc(Nc2cc(N3CCN(C)CC3)nc(Sc3ccc(NC(=O)C4CC4)cc3)n2)n[nH]1 [Tozasertib] (partner 0.1 µM)', 0.195),
  ('COCC1(CO)C(=O)C2CCN1CC2 (stereo not given) [PRIMA-1MET] + C[C@]1(O)C[C@@H](c2nc(-c3ccc4ccc(-c5ccccc5)nc4c3)c3c(N)nccn32)C1 [Linsitinib] (partner 1 µM)', 0.873);

====

Reported relative viability values follow for various molecules
System: NCI-H727
Method Description: relative viability (nuclei count vs DMSO), 5 days (fraction); higher = more cells survive
Measurement Setup: first compound 8 µM
Reported Metric: relative viability

INSERT INTO measurements (molecule, recorded_value) VALUES
  ('O=c1cc(-c2cccc3c2Sc2ccccc2S3)oc(N2CCOCC2)c1 + N=C(N)NC(=N)NCCc1ccccc1 [Phenformin] (partner 250 µM)', 0.525),
  ('O=c1cc(-c2cccc3c2Sc2ccccc2S3)oc(N2CCOCC2)c1 + Nc1ncn([C@H]2C[C@H](O)[C@@H](CO)O2)c(=O)n1 [Decitabine] (partner 2 µM)', 0.895),
  ('O=c1cc(-c2cccc3c2Sc2ccccc2S3)oc(N2CCOCC2)c1 + CC(=O)c1c(C)c2cnc(Nc3ccc(N4CCNCC4)cn3)nc2n(C2CCCC2)c1=O [Palbociclib] (partner 0.5 µM)', 0.613),
  ('O=c1cc(-c2cccc3c2Sc2ccccc2S3)oc(N2CCOCC2)c1 + CCNC(=O)c1noc(-c2cc(C(C)C)c(O)cc2O)c1-c1ccc(CN2CCOCC2)cc1 [Luminespib] (partner 0.01 µM)', 0.382),
  ('O=c1cc(-c2cccc3c2Sc2ccccc2S3)oc(N2CCOCC2)c1 + CS(=O)(=O)CCNCc1ccc(-c2ccc3ncnc(Nc4ccc(OCc5cccc(F)c5)c(Cl)c4)c3c2)o1 [Lapatinib] (partner 2 µM)', 1.16),
  ('O=c1cc(-c2cccc3c2Sc2ccccc2S3)oc(N2CCOCC2)c1 + O=C(CCCCCCC(=O)Nc1ccccc1)NO [Vorinostat] (partner 1 µM)', 1.24),
  ('O=c1cc(-c2cccc3c2Sc2ccccc2S3)oc(N2CCOCC2)c1 + CC1(C)CCC(c2ccc(Cl)cc2)=C(CN2CCN(c3ccc(C(=O)NS(=O)(=O)c4ccc(N[C@H](CCN5CCOCC5)CSc5ccccc5)c(S(=O)(=O)C(F)(F)F)c4)cc3)CC2)C1 [Navitoclax] (partner 0.5 µM)', 0.494),
  ('O=c1cc(-c2cccc3c2Sc2ccccc2S3)oc(N2CCOCC2)c1 + C[C@]1(O)C[C@@H](c2nc(-c3ccc4ccc(-c5ccccc5)nc4c3)c3c(N)nccn32)C1 [Linsitinib] (partner 1 µM)', 0.304),
  ('O=c1cc(-c2cccc3c2Sc2ccccc2S3)oc(N2CCOCC2)c1 + CS(=O)(=O)N1CCN(Cc2cc3nc(-c4cccc5[nH]ncc45)nc(N4CCOCC4)c3s2)CC1 [Pictilisib] (partner 1 µM)', 0.528);

====

Item-by-item account of relative viability
Tested on: LK-2
Method Description: relative viability (nuclei count vs DMSO), 5 days (fraction); higher = more cells survive
Measurement Setup: first compound 2.53 µM
Reported Metric: relative viability

INSERT INTO measurements (molecule, recorded_value) VALUES
  ('O=c1cc(-c2cccc3c2Sc2ccccc2S3)oc(N2CCOCC2)c1 + Cc1cc(Nc2cc(N3CCN(C)CC3)nc(Sc3ccc(NC(=O)C4CC4)cc3)n2)n[nH]1 [Tozasertib] (partner 0.1 µM)', 0.162),
  ('COc1nc(C)cnc1NS(=O)(=O)c1cccnc1-c1ccc(-c2nnco2)cc1 [Zibotentan] + CC1(C)CCC(c2ccc(Cl)cc2)=C(CN2CCN(c3ccc(C(=O)NS(=O)(=O)c4ccc(N[C@H](CCN5CCOCC5)CSc5ccccc5)c(S(=O)(=O)C(F)(F)F)c4)cc3)CC2)C1 [Navitoclax] (partner 0.5 µM)', 0.828);

====

System: NCI-H2170
Method Description: relative viability (nuclei count vs DMSO), 5 days (fraction); higher = more cells survive
Measurement Setup: first compound 0.01 µM
Reported Metric: relative viability

INSERT INTO results (compound, recorded_value) VALUES
  ('O=c1cc(N2CCOCC2)oc2c(-c3cccc4c3sc3ccccc34)cccc12 + CC(=O)c1c(C)c2cnc(Nc3ccc(N4CCNCC4)cn3)nc2n(C2CCCC2)c1=O [Palbociclib] (partner 0.5 µM)', 0.424),
  ('CCN(CC)CCCCNc1ncc2cc(-c3cc(OC)cc(OC)c3)c(NC(=O)NC(C)(C)C)nc2n1 + Nc1nc2[nH]cc(CCc3ccc(C(=O)N[C@@H](CCC(=O)O)C(=O)O)cc3)c2c(=O)[nH]1 [Pemetrexed] (partner 0.2 µM)', 0.251);

====

Test system: NCI-H650
Method Description: relative viability (nuclei count vs DMSO), 5 days (fraction); higher = more cells survive
Measurement Setup: first compound 0.01 µM
Reported Metric: relative viability

INSERT INTO results (compound, reported_metric, recorded_value) VALUES
  ('O=c1cc(N2CCOCC2)oc2c(-c3cccc4c3sc3ccccc34)cccc12 + CC(=O)Nc1cccc(-n2c(=O)n(C3CC3)c(=O)c3c(Nc4ccc(I)cc4F)n(C)c(=O)c(C)c32)c1 [Trametinib] (partner 0.02 µM)', 'relative viability', 1.05),
  ('CCN(CC)CCCCNc1ncc2cc(-c3cc(OC)cc(OC)c3)c(NC(=O)NC(C)(C)C)nc2n1 + O=C(c1cc(Cc2n[nH]c(=O)c3ccccc23)ccc1F)N1CCN(C(=O)C2CC2)CC1 [Olaparib] (partner 8 µM)', 'relative viability', 0.369),
  ('CCN(CC)CCCCNc1ncc2cc(-c3cc(OC)cc(OC)c3)c(NC(=O)NC(C)(C)C)nc2n1 + Nc1ncn([C@H]2C[C@H](O)[C@@H](CO)O2)c(=O)n1 [Decitabine] (partner 2 µM)', 'relative viability', 0.14),
  ('O=c1cc(N2CCOCC2)oc2c(-c3cccc4c3sc3ccccc34)cccc12 + C[C@@H](Oc1cc(-c2cnn(C3CCNCC3)c2)cnc1N)c1c(Cl)ccc(F)c1Cl [Crizotinib] (partner 1 µM)', 'relative viability', 0.738),
  ('O=c1cc(N2CCOCC2)oc2c(-c3cccc4c3sc3ccccc34)cccc12 + O=C(c1cc(Cc2n[nH]c(=O)c3ccccc23)ccc1F)N1CCN(C(=O)C2CC2)CC1 [Olaparib] (partner 8 µM)', 'relative viability', 0.424);
